- subject-of-test: skeletal myofibrils (myosin ATPase)
- assay-summary: Skeletal Myofibril ATPase Assay
- Format: biochemical
- setup-conditions: Table 4C
pIC50: −log10 of the molar value.

{"compound": "COc1ccc(-c2ccc(=O)n(CC(=O)NCc3cccc(Cl)c3)n2)cc1", "pIC50": "> 5.00"}
{"compound": "COCCNC(=O)Cn1nc(-c2ccc(OC)cc2)ccc1=O", "pIC50": "< 4.00"}
{"compound": "COc1ccc(Cl)cc1NC(=O)Cn1nc(-c2ccccc2)ccc1=O", "pIC50": "< 4.00"}
{"compound": "CC(C)c1cccc(NC(=O)Cn2nc(-c3ccc4c(c3)OCCCO4)ccc2=O)c1", "pIC50": "> 5.00"}
{"compound": "CN(Cc1ccccc1)C(=O)Cn1nc(-c2ccc(Cl)cc2)ccc1=O", "pIC50": "4.00 to 5.00"}
{"compound": "CCNC(=O)Cn1nc(-c2ccc(C3CC3)cc2)ccc1=O", "pIC50": "> 5.00"}
{"compound": "COc1ccccc1NC(=O)Cn1nc(-c2ccccc2)ccc1=O", "pIC50": "4.00 to 5.00"}
{"compound": "CC[C@H](C)NC(=O)Cn1nc(-c2ccc(C)cc2)ccc1=O", "pIC50": "> 5.00"}
{"compound": "COc1ccc(-c2ccc(=O)n(CC(=O)NC(C)CCc3ccccc3)n2)c(F)c1 (stereo not drawn)", "pIC50": "4.00 to 5.00"}

----------
- subject-of-test: skeletal myofibrils (myosin ATPase)
- assay-summary: Skeletal Myofibril ATPase Assay
- Type: biochemical
- setup-conditions: Table 4C
pIC50: −log10 of the molar value.
// values below are reported pIC50

{"smiles-notation": "CCNC(=O)Cn1nc(-c2ccc(OCC3(F)COC3)cc2)ccc1=O", "pIC50": "4.00 to 5.00"}
{"smiles-notation": "COc1ccc(-c2ccc(=O)n(CC(=O)NCc3cnccn3)n2)cc1", "pIC50": "< 4.00"}
{"smiles-notation": "CNC(=O)Cn1nc(-c2ccc(OC)cc2)ccc1=O", "pIC50": "4.00 to 5.00"}
{"smiles-notation": "O=C(Cn1nc(-c2ccc(Cl)cc2)ccc1=O)Nc1cccc2[nH]ccc12", "pIC50": "> 5.00"}
{"smiles-notation": "COc1ccc(-c2ccc(=O)n(CC(=O)Nc3ccc4c(c3)OCCO4)n2)cc1", "pIC50": "> 5.00"}
{"smiles-notation": "COc1ccc(-c2ccc(=O)n(CC(=O)NCc3ccc(OC)c(OC)c3)n2)cc1", "pIC50": "< 4.00"}
{"smiles-notation": "COc1ccc(-c2ccc(=O)n(CC(=O)NC(C)C)n2)cc1", "pIC50": "4.00 to 5.00"}
{"smiles-notation": "COc1ccc(-c2ccc(=O)n(CC(=O)Nc3cccc4[nH]ccc34)n2)c(F)c1", "pIC50": "> 5.00"}
{"smiles-notation": "O=C(Cn1nc(-c2ccccc2)ccc1=O)Nc1ccccc1F", "pIC50": "< 4.00"}

----------
- subject-of-test: skeletal myofibrils (myosin ATPase)
- assay-summary: Skeletal Myofibril ATPase Assay
- Format: biochemical
- setup-conditions: Table 4B

{"molecule": "O=C(Cn1nc(-c2ccc(OC(F)F)cc2)ccc1=O)NCc1ccccc1Cl [II-3]", "IC50": "< 10 µM"}
{"molecule": "CCNC(=O)Cn1nc(-c2ccc(OC(F)F)cc2)c(C)cc1=O [II-19]", "IC50": "10 to 100 µM"}
{"molecule": "O=C(Cn1nc(-c2ccc(OCC(F)(F)F)cc2)ccc1=O)NCc1ccc(CO)cc1 [II-24]", "IC50": "> 100 µM"}
{"molecule": "O=C(Cn1nc(-c2ccc(OCC(F)(F)F)cc2)ccc1=O)N1CCC1c1ccccc1 (stereo not drawn) [II-23]", "IC50": "< 10 µM"}
{"molecule": "CCNC(=O)Cn1nc(-c2ccc(OC(F)F)cc2)cc(C)c1=O [II-21]", "IC50": "> 100 µM"}
{"molecule": "O=C(Cn1nc(-c2ccc(OCC(F)(F)F)cc2)ccc1=O)NCc1ccc(O)nc1 [II-20]", "IC50": "> 100 µM"}
